target: ~100 representative kinases (Homo sapiens, UniProt P45985); construct: Recombinant protein kinase domains with a concentration of 2 μM; assay: DSF 100 kinase selectivity screen; format: binding; conditions: protein MAP2K4; average of three replicates;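 for dTm: compound tested at 20 µM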
Sequence (P45985 whole entry, the tested form may be a part): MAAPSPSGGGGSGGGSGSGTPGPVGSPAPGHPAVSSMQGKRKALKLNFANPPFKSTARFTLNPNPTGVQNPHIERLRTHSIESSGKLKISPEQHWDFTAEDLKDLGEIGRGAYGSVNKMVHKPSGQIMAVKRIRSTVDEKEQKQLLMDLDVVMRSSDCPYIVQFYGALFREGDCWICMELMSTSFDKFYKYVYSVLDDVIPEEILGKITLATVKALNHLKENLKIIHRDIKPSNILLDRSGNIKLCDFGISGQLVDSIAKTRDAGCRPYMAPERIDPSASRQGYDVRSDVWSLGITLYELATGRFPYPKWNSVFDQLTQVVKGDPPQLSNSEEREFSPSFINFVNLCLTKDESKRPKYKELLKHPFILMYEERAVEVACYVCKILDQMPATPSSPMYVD
readout name: dTm (K)

Sample answers from the record:
| compound | dTm / K |
| --- | --- |
| CC(C)(C)c1cc(NC(=O)Nc2cccc(-c3c[nH]c4ncnc(N5CCOCC5)c34)c2)n(-c2ccc3ncccc3c2)n1 | 6.08 |
| COc1ccc(NC(=O)C2(C(=O)Nc3cccc(-c4c[nH]c5ncnc(N6CCOCC6)c45)c3)CC2)cc1 | 3.98 |
| Cn1cc(-c2c[nH]c3ncnc(N4CCOCC4)c23)cc1C#N | 1.90 |
| CC(C)(C)c1cccc(NC(=O)C2(C(=O)Nc3cccc(-c4c[nH]c5ncnc(N6CCOCC6)c45)c3)CC2)c1 | 5.69 |

[A] O=C(Nc1cccc(-c2c[nH]c3ncnc(N4CCOCC4)c23)c1)c1cccn(-c2ccc(F)cc2)c1=O
[B] CCNc1nc(Nc2cc(F)c(C(=O)N3CCOCC3)cc2OC)ncc1C(F)(F)F
Select the item with the higher value of dTm from the options A and B listed. Answer format: the label of the selected item. A
(A: 6.40 K, B: 1.26 K)

###

Target: ~100 representative kinases (Homo sapiens, UniProt Q9UEE5)
Construct: Recombinant protein kinase domains with a concentration of 2 μM
Sequence (Q9UEE5 whole entry, the tested form may be a part): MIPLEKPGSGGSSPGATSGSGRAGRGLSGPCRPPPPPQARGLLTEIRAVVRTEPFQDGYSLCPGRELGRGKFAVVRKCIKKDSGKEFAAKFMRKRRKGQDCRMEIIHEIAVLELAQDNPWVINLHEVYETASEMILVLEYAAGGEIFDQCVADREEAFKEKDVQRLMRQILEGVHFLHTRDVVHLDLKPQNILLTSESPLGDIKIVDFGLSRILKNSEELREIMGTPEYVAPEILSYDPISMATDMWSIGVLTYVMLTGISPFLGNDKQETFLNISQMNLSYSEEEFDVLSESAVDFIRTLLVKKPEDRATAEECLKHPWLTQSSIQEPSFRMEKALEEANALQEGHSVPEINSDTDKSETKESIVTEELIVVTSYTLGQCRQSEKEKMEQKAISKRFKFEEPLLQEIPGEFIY
Assay: DSF 100 kinase selectivity screen;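 for dTm: compound tested at 20 µM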
Format: binding
Settings: Protein STK17A; DSF; average of three replicates
Experimental: Recombinant protein kinase domains with a concentration of 2 μM were mixed with a 20 μM compound solution in dimethyl sulfoxide (DMSO), 20 mM Hepes (pH 7.5), and 500 mM NaCl. SYPRO Orange (5000×, Invitrogen) was added as a fluorescence probe (1μl/ml). Subsequently, temperature-dependent protein unfolding profiles were measured using the QuantStudio 5 realtime PCR machine (Thermo Fisher Scientific, Waltham, MA, USA). […] The temperature was raised with a step rate of 3°C/min. […]
readout name: dTm (K)

Sample answers from the record:
| compound | dTm [K] |
| --- | --- |
| CCSc1nc(NC)c2c(-c3cccc(NC(=O)Nc4cc(C(C)(C)C)nn4-c4ccc(C)cc4)c3)c[nH]c2n1 [Compound 32] | -0.0646 |
| O=C(Nc1ccccc1)C1(C(=O)Nc2cccc(-c3c[nH]c4ncnc(N5CCOCC5)c34)c2)CC1 [Compound 12] | 0.26 |
| CC(C)(C)c1cc(NC(=O)Nc2cccc(-c3c[nH]c4ncnc(N5CCOCC5)c34)c2)n(-c2ccc3ncccc3c2)n1 [Compound 28] | 4.48 |
| O=C(Nc1cccc(-c2c[nH]c3ncnc(N4CCOCC4)c23)c1)C1(C(=O)Nc2ccc(F)c(Br)c2F)CC1 [Compound 26] | -0.52 |
| O=C(Nc1cccc(-c2c[nH]c3ncnc(N4CCOCC4)c23)c1)C1(C(=O)Nc2ccc(F)c(F)c2)CC1 [Compound 17] | 0.99 |

[A] CCNc1nc(Nc2cc(F)c(C(=O)N3CCOCC3)cc2OC)ncc1C(F)(F)F [GNE-7915]
[B] Cc1ccc(NC(=O)C2(C(=O)Nc3cccc(-c4c[nH]c5ncnc(N6CCOCC6)c45)c3)CC2)cc1 [Compound 14]
[C] COc1cc(S(C)(=O)=O)ccc1Nc1nc(N(C)C)c2c(Cl)c[nH]c2n1 [Compound 37]
List items by dTm in falling order. Response format: the labels, sorted as the prompt asks. A, C, B

[1] Cc1cc(NC(=O)C2(C(=O)Nc3ccc(F)cc3)CC2)cc(-c2c[nH]c3ncnc(N4CCOCC4)c23)c1 [Compound 6]
[2] Cc1ccc(-n2nc(C(C)(C)C)cc2NC(=O)Nc2cccc(-c3c[nH]c4ncnc(N5CCOCC5)c34)c2)cc1 [Compound 29]
[3] COc1cc(NC(=O)C2(C(=O)Nc3cccc(-c4c[nH]c5ncnc(N6CCOCC6)c45)c3)CC2)ccc1F [Compound 21]
[4] O=C(Nc1cc(F)cc(Br)c1)C1(C(=O)Nc2cccc(-c3c[nH]c4ncnc(N5CCOCC5)c34)c2)CC1 [Compound 27]
List items by dTm in falling order. Response format: the labels, sorted as the prompt asks. 2, 4, 1, 3
(2: 3.34 K, 4: 1.21 K, 1: 0.40 K, 3: 0.20 K)

[a] CCc1ccc(NC(=O)C2(C(=O)Nc3cccc(-c4c[nH]c5ncnc(N6CCOCC6)c45)c3)CC2)cc1 [Compound 15]
[b] O=C(Nc1cccc(-c2c[nH]c3ncnc(N4CCOCC4)c23)c1)c1cccn(-c2ccc(F)cc2)c1=O [Compound 4]
Would you mind telling me which has the lower recorded dTm between a and b ? Answer format: the label of the selected item. a
(a: -0.28 K, b: -0.07 K)

###

biological target: ~100 representative kinases (Homo sapiens, UniProt P53355); construct: Recombinant protein kinase domains with a concentration of 2 μM; assay: DSF 100 kinase selectivity screen; format: binding; details: Protein DAPK1; average of three replicates;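 for dTm: compound tested at 20 µM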
Sequence (P53355 whole entry, the tested form may be a part): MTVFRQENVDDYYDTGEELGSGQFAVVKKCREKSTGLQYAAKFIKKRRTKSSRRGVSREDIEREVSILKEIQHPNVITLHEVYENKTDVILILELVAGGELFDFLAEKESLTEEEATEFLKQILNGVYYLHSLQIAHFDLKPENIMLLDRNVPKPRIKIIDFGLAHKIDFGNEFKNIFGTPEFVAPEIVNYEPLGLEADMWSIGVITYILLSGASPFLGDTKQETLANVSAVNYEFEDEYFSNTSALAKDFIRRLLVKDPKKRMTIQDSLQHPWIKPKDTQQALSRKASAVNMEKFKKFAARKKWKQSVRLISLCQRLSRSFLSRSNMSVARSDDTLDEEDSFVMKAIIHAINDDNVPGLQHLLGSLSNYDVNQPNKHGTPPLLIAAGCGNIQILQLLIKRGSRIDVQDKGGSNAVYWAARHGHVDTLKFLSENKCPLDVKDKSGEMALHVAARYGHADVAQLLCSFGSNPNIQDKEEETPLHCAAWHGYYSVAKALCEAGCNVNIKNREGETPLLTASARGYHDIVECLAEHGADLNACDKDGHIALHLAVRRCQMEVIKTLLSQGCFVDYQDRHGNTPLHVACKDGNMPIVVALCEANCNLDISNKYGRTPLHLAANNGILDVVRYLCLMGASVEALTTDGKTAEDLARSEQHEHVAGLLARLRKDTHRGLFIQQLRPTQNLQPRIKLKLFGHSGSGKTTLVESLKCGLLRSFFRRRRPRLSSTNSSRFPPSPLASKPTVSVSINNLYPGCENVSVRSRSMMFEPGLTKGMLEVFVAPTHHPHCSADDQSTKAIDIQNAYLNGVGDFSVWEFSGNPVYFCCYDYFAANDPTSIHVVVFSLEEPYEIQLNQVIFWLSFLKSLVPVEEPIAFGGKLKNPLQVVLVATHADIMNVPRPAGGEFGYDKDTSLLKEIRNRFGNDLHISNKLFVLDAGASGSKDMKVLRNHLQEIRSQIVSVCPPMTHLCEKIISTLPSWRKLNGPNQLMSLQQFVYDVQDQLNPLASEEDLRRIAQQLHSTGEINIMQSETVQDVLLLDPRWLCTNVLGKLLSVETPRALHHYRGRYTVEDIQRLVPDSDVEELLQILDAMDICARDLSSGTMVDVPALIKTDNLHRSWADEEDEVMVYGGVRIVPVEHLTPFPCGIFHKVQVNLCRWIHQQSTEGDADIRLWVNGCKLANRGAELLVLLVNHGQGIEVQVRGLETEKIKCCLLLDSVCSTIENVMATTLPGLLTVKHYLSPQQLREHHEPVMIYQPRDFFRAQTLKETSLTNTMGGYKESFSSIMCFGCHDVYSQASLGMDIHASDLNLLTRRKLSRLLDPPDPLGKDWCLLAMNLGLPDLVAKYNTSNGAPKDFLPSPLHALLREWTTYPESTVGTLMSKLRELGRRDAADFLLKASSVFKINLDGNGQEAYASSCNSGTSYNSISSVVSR
readout name: dTm (K)

| compound | dTm (K) |
| --- | --- |
| C[C@@H]1CN(c2cc(-c3n[nH]c4ccc(OC5(C)CC5)cc34)ncn2)C[C@H](C)O1 [MLi2] | 0.22 |

[I] Cc1cc(F)ccc1NC(=O)C1(C(=O)Nc2cccc(-c3c[nH]c4ncnc(N5CCOCC5)c34)c2)CC1 [Compound 24]
[II] CC(=O)N1CCN(c2nc(Cl)nc3[nH]cc(-c4cccc(NC(=O)Nc5cc(C(C)(C)C)nn5-c5ccc(C)cc5)c4)c23)CC1 [Compound 31]
Select the item with the higher value of dTm from the options I and II listed. Answer format: the label of the selected item. I

###

System: ~100 representative kinases
Test: DSF 100 kinase selectivity screen
Format: binding
Conditions: number of kinases with thermal shift >5 K divided by total number of kinases screened
Procedure: Recombinant protein kinase domains with a concentration of 2 μM were mixed with a 20 μM compound solution in dimethyl sulfoxide (DMSO), 20 mM Hepes (pH 7.5), and 500 mM NaCl. SYPRO Orange (5000×, Invitrogen) was added as a fluorescence probe (1μl/ml). Subsequently, temperature-dependent protein unfolding profiles were measured using the QuantStudio 5 realtime PCR machine (Thermo Fisher Scientific, Waltham, MA, USA). […] The temperature was raised with a step rate of 3°C/min. […]
readout name: S(5K)

| compound | S(5K) |
| --- | --- |
| Cc1ccc(-n2nc(C(C)(C)C)cc2NC(=O)Nc2cccc(-c3c[nH]c4nc(Cl)nc(N5CCOCC5)c34)c2)cc1 [Compound 30] | 0.10 |
| O=C(Nc1cccc(-c2c[nH]c3ncnc(N4CCOCC4)c23)c1)C1(C(=O)Nc2ccc(F)c(Cl)c2)CC1 [Compound 18] | 0.36 |
| Cc1ccc(C(=O)Nc2ccc(CN3CCN(C)CC3)c(C(F)(F)F)c2)cc1C#Cc1c[nH]c2ncnc(N3CCOCC3)c12 [Compound 1] | 0.20 |

[a] COc1cc(C(=O)N2CCOCC2)c(F)cc1Nc1nc(N(C)C)c2c(Cl)c[nH]c2n1 [Compound 36]
[b] Cc1ccc(NC(=O)C2(C(=O)Nc3cccc(-c4c[nH]c5ncnc(N6CCOCC6)c45)c3)CC2)cc1 [Compound 14]
[c] Cc1ccc(-n2nc(C(C)(C)C)cc2NC(=O)Nc2cccc(-c3c[nH]c4ncnc(N5CCOCC5)c34)c2)cc1 [Compound 29]
Endpoint returns the given compounds ordered by ascending S(5K). Response format: the labels, sorted as the prompt asks. a, b, c
(a: 0.14, b: 0.22, c: 0.36)

[P] O=C(Nc1cccc(-c2c[nH]c3ncnc(N4CCOCC4)c23)c1)C1(C(=O)Nc2ccc(F)c(Br)c2F)CC1 [Compound 26]
[Q] O=C(Nc1cc(F)cc(Br)c1)C1(C(=O)Nc2cccc(-c3c[nH]c4ncnc(N5CCOCC5)c34)c2)CC1 [Compound 27]
Would you mind telling me which has the lower recorded S(5K) between P and Q ? Answer format: the label of the selected item. Q
(Q: 0.09, P: 0.14)

###

molecular target: ~100 representative kinases (Homo sapiens); construct: Recombinant protein kinase domains with a concentration of 2 μM; assay: DSF 100 kinase selectivity screen; format: binding; conditions: protein MAP2K6; average of three replicates;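 for dTm: compound tested at 20 µM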
readout name: dTm (K)

| mol smiles | data value |
| --- | --- |
| O=C(Nc1ccc(Cl)cc1)C1(C(=O)Nc2cccc(-c3c[nH]c4ncnc(N5CCOCC5)c34)c2)CC1 | 2.65 |
| CCc1ccc(NC(=O)C2(C(=O)Nc3cccc(-c4c[nH]c5ncnc(N6CCOCC6)c45)c3)CC2)cc1 | 2.06 |
| O=C(Nc1cccc(-c2c[nH]c3ncnc(N4CCOCC4)c23)c1)C1(C(=O)Nc2ccc(F)c(Cl)c2)CC1 | 2.96 |
| CC(C)(C)c1cccc(NC(=O)C2(C(=O)Nc3cccc(-c4c[nH]c5ncnc(N6CCOCC6)c45)c3)CC2)c1 | 1.77 |
| O=C(Nc1ccc(F)cc1)C1(C(=O)Nc2cccc(-c3c[nH]c4ncnc(N5CCOCC5)c34)c2)CC1 | 2.20 |
| O=C(Nc1cccc(-c2c[nH]c3ncnc(N4CCOCC4)c23)c1)c1cccn(-c2ccc(F)cc2)c1=O | 2.38 |
| Cn1cc(-c2c[nH]c3ncnc(N4CCOCC4)c23)cc1C#N | 1.09 |
